Hey, just so you know, these numbers are from patent US20230152304A1.

- Assay method text: pKa of the amino group of the compound
Residues, ends and D or L forms follow the SMILES beside them.
Recorded measurements of pKa, one per entry

Compound	pKa
Nc1ccc(O)cc1	5.5
OCN(CO)C(CO)(CO)CO [reference compound]	6.5

Value lookup for pKa; key = NS(=O)(=O)O 1.19

Value lookup for pKa; key = NCC(=O)NCC(=O)O [gly-gly] (H-Gly-Gly-OH) 9.6

Value lookup for pKa; key = N=C(N)N 13.17

Value lookup for pKa; key = N[C@@H](CCC(=O)O)C(=O)O 9.6

###

- Assay method text: pKa of the amino group of the compound
- Measurement parameters: pKa, Table 4
Observed property: pKa
Give your answer as a number; write no unit.

Some solved entries appear below for comparison.
Molecule	pKa
CC(=O)NC(=N)N [1-acetylguanidine]	8.33
CC(N)C(N)=O (stereo not drawn) [2-aminopropanamide]	8.18
N=C(N)NCC(=O)O [{[amino(imino)methyl]amino}-acetic acid]	10.8
NCCS(=O)(=O)O [taurine]	9.12
NCCc1ccc(O)cc1 [tyramine]	10.6

Now let's try a different one.
Value lookup for pKa; key = NCCCC(=O)O [4-aminobutyric acid] 10.4
